- target_of_assay: glucagon receptor (GCGR), primary cAMP assay cell line (human, UniProt P47871 26-477)
- Sequence (P47871 26-477): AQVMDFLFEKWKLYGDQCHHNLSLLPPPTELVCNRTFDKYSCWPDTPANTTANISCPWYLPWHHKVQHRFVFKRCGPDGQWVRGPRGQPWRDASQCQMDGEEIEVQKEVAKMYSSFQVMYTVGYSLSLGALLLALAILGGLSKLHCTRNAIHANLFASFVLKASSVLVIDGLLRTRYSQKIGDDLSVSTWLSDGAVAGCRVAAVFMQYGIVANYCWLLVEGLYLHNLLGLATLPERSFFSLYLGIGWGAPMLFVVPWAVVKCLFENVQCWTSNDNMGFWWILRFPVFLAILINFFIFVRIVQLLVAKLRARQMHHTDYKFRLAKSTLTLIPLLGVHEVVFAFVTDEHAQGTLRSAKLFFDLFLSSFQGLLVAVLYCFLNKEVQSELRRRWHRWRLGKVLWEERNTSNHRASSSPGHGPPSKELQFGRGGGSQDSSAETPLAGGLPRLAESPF
- test_name: cell-based or functional assay
Starred links: 1 amine or outer side, 2 acyl side, 3 side chain; linkers in the order of their positions; H or OH if unused. Non-standard residues stand in square brackets, D forms with d. Groups on a side chain read outwards from the residue. Primed or numbered codes have the meaning given here. No end group written: not given here. *: point of attachment. γGlu = O=C(O)[C@H](CCC(=O)[*:2])N[*:1]; αMeF = C[C@](N)(Cc1ccccc1)C(=O)O; αMeK = C[C@](N)(CCCCN)C(=O)O; Lauroyl = CCCCCCCCCCCC(=O)*; αMeS = C[C@](N)(CO)C(=O)O; PEG2′ = not defined here; Aib = CC(C)(N)C(=O)O
assay_readout: cAMP Primary assay EC50, n1 (nM)

{"binder": "H[Aib]EGS[αMeF]TSDK([PEG2′-PEG2′-γGlu-Lauroyl])SSYLEGK([PEG2′-PEG2′-γGlu-Lauroyl])AA[αMeK]EFIAFK([PEG2′-PEG2′-γGlu-Lauroyl])VEGG-NH2 [SEQ ID NO: 472]", "unit": "nM", "recorded_result": 19.9}
{"binder": "H[Aib]EGS[αMeF]TSDV[αMeS]SYK([PEG2′-PEG2′-γGlu-Lauroyl])EGEK([PEG2′-PEG2′-γGlu-Lauroyl])A[αMeK]EFIK([PEG2′-PEG2′-γGlu-Lauroyl])FVVEGG-NH2 [SEQ ID NO: 453]", "unit": "nM", "recorded_result": 19.5}
{"binder": "H[Aib]EGS[αMeF]TSDVSK([PEG2′-PEG2′-γGlu-Lauroyl])YLEGEAA[αMeK]K([PEG2′-PEG2′-γGlu-Lauroyl])FIAK([PEG2′-PEG2′-γGlu-Lauroyl])VVEGG-NH2 [SEQ ID NO: 462]", "unit": "nM", "recorded_result": 20}
{"binder": "H[Aib]EGS[αMeF]TSDV[αMeS]SYK([PEG2′-PEG2′-γGlu-Lauroyl])EK([PEG2′-PEG2′-γGlu-Lauroyl])EAA[αMeK]EFIAK([PEG2′-PEG2′-γGlu-Lauroyl])VVEGG-NH2 [SEQ ID NO: 467]", "unit": "nM", "recorded_result": 19.8}
{"binder": "H[Aib]EGS[αMeF]TSDK([PEG2′-PEG2′-γGlu-Lauroyl])SSYLEK([PEG2′-PEG2′-γGlu-Lauroyl])EAA[αMeK]EFIAK([PEG2′-PEG2′-γGlu-Lauroyl])VVEGG-NH2 [SEQ ID NO: 455]", "unit": "nM", "recorded_result": 19.8}
{"binder": "H[Aib]EGS[αMeF]TSDK([PEG2′-PEG2′-γGlu-Lauroyl])SSYLEGEAA[αMeK]K([PEG2′-PEG2′-γGlu-Lauroyl])FIAK([PEG2′-PEG2′-γGlu-Lauroyl])VVEGG-NH2 [SEQ ID NO: 458]", "unit": "nM", "recorded_result": 20}
{"binder": "H[Aib]EGS[αMeF]TSDV[αMeS]SK([PEG2′-PEG2′-γGlu-Lauroyl])LEGEK([PEG2′-PEG2′-γGlu-Lauroyl])A[αMeK]EFIAK([PEG2′-PEG2′-γGlu-Lauroyl])VVEGG-NH2 [SEQ ID NO: 465]", "unit": "nM", "recorded_result": 20}
{"binder": "H[Aib]EGS[αMeF]TSDV[αMeS]SYK([PEG2′-PEG2′-γGlu-Lauroyl])EGEK([PEG2′-PEG2′-γGlu-Lauroyl])A[αMeK]EFIAK([PEG2′-PEG2′-γGlu-Lauroyl])VVEGG-NH2 [SEQ ID NO: 469]", "unit": "nM", "recorded_result": 19.8}
{"binder": "H[Aib]EGS[αMeF]TSDV[αMeS]SK([PEG2′-PEG2′-γGlu-Lauroyl])LEGK([PEG2′-PEG2′-γGlu-Lauroyl])AA[αMeK]EFIAFK([PEG2′-PEG2′-γGlu-Lauroyl])VEGG-NH2 [SEQ ID NO: 480]", "unit": "nM", "recorded_result": 20}
{"binder": "H[Aib]EGS[αMeF]TSDV[αMeS]SYK([PEG2′-PEG2′-γGlu-Lauroyl])EGK([PEG2′-PEG2′-γGlu-Lauroyl])AA[αMeK]EFIK([PEG2′-PEG2′-γGlu-Lauroyl])FVVEGG-NH2 [SEQ ID NO: 452]", "unit": "nM", "recorded_result": 19.5}
{"binder": "H[Aib]EGS[αMeF]TSDK([PEG2′-PEG2′-γGlu-Lauroyl])SSYLEK([PEG2′-PEG2′-γGlu-Lauroyl])EAA[αMeK]EFIK([PEG2′-PEG2′-γGlu-Lauroyl])FVVEGG-NH2 [SEQ ID NO: 439]", "unit": "nM", "recorded_result": 19.5}
{"binder": "H[Aib]EGS[αMeF]TSDV[αMeS]SK([PEG2′-PEG2′-γGlu-Lauroyl])LEGEAA[αMeK]K([PEG2′-PEG2′-γGlu-Lauroyl])FIK([PEG2′-PEG2′-γGlu-Lauroyl])FVVEGG-NH2 [SEQ ID NO: 450]", "unit": "nM", "recorded_result": 19.9}
{"binder": "H[Aib]EGS[αMeF]TSDVSK([PEG2′-PEG2′-γGlu-Lauroyl])YLEK([PEG2′-PEG2′-γGlu-Lauroyl])EAA[αMeK]EFIK([PEG2′-PEG2′-γGlu-Lauroyl])FVVEGG-NH2 [SEQ ID NO: 443]", "unit": "nM", "recorded_result": 19.4}
{"binder": "H[Aib]EGS[αMeF]TSDV[αMeS]SYK([PEG2′-PEG2′-γGlu-Lauroyl])EGEAA[αMeK]K([PEG2′-PEG2′-γGlu-Lauroyl])FIK([PEG2′-PEG2′-γGlu-Lauroyl])FVVEGG-NH2 [SEQ ID NO: 454]", "unit": "nM", "recorded_result": 19.7}
